experimental_target: human PD-1/PD-L1 binding (Homo sapiens)
Construct: PD-L1-His protein (19 to 238 amino acids) (Abcam #ab167713); purchased Abcam (PD-L1-His); R&D (PD-1-Fc) ab167713; 1086-PD
Sequence (Q9NZQ7 19-238): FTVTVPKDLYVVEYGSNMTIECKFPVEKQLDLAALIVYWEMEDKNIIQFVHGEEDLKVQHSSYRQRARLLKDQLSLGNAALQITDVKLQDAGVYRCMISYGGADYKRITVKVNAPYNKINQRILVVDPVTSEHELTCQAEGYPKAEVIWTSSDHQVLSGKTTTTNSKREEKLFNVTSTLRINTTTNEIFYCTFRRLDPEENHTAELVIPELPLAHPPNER
test_summary: Inhibition of human PD-1/PD-L1 binding (TR-FRET/HTRF)
conditions: TR-FRET, PD-L1-His and PD-1-Fc; read-out: PD-1/PD-L1 binding IC50
The following compounds are shown together with reported IC50 values.
property: IC50 (nM)

>>> df
                                    compound  property  val
 0  COc1nc(-c2cccc(-c3cccc(NC(=O)c4nc5c(n4C)CCN(C)C5)c3Cl)c2Cl)ccc1CN1CC2(C1)CN(S(C)(=O)=O)C2 [Embodiment 192]      IC50    9
 1  COc1cc(-c2cccc(-c3cccc(NC(=O)c4nc5c(n4C)CCN(C)C5)c3Cl)c2Cl)ccc1CNCC(=O)O [Embodiment 159]      IC50  2.2
 2  COc1nc(-c2cccc(-c3cccc(NC(=O)c4nc5c(n4C)CCN(C)C5)c3Cl)c2Cl)ccc1CN1CC(NC(C)=O)C1 [Embodiment 180]      IC50  3.8
 3  COc1cc(-c2cccc(-c3cccc(NC(=O)c4nc5c(n4C)CCN(C)C5)c3Cl)c2Cl)ccc1CNC[C@@H](C)O [Embodiment 158]      IC50  6.4
 4  COc1nc(-c2cccc(-c3cccc(NC(=O)c4nc5c(n4C)CCN(C)C5)c3Cl)c2Cl)ccc1CN1CC(F)C1 [Embodiment 120]      IC50  7.4
 5  COc1nc(OCc2cccc(-c3cccc(NC(=O)c4nc5c(n4C)CCN(C)C5)c3Cl)c2C)nc(OC)c1CN1CCCC[C@H]1C(=O)O [Embodiment 170]      IC50  4.1
 6  CCN1CCc2c(nc(C(=O)Nc3cccc(-c4cccc(NC(=O)c5cc(OC)c(CNc6ccnc(OC)c6)cn5)c4Cl)c3Cl)n2C)C1 [Embodiment 82]      IC50  3.9
 7  COc1nc(-c2cccc(-c3cccc(NC(=O)c4nc5c(n4C)CCN(C)C5)c3Cl)c2Cl)ccc1CN1CC2(CCC(=O)N2)C1 [Embodiment 126]      IC50    2
 8  COc1nc(-c2cccc(-c3cccc(NC(=O)c4nc5c(n4C)CCN(C)C5)c3Cl)c2Cl)ccc1CN1CC2(C1)CN(C(=O)CC#N)C2 [Embodiment 191]      IC50  4.8
 9  COc1cc(NCc2cnc(C(=O)Nc3cccc(-c4cccc(NC(=O)c5nc6c(n5C)CCN(C)C6)c4Cl)c3Cl)cc2OC)ccn1 [Embodiment 2]      IC50    5
10  COc1cc(C(=O)Nc2cccc(-c3cccc(NC(=O)c4nc5c(n4C)CCN(C)C5)c3Cl)c2C)ncc1CNC1(C)COC1 [Embodiment 99]      IC50  4.4
11  Cc1c(NC(=O)c2cc(C3CC3)c(CO)cn2)cccc1-c1cccc(NC(=O)c2nc3c(n2C)CCN(C)C3)c1Cl [Embodiment 51]      IC50  5.5
12  CCn1c(C(=O)Nc2cccc(-c3cccc(-c4ccc(CN5CC(C(=O)O)C5)c(OC)n4)c3Cl)c2Cl)nc2c1CCN(C)C2 [Embodiment 240]      IC50  2.8
